Quick record: IC50, HCV NS5B polymerase (Hepatitis C virus genotype 1b, UniProt P26663).

Below, each entry is followed by its recorded IC50 result.
CCC(C)n1nc(-c2cccs2)c(O)c(C2=NS(=O)(=O)c3cc(NS(C)(=O)=O)ccc3N2)c1=O (stereo not shown) | 100 to 1000 nM
CC(C)CCn1nc(-c2cccs2)c(O)c(C2=NS(=O)(=O)c3cc(NS(=O)(=O)C(C)C)ccc3N2)c1=O | < 100 nM
CC(C)CCn1nc(-c2ccccc2)c(O)c(C2=Nc3ccc(N(C)S(C)(=O)=O)cc3S(=O)(=O)N2)c1=O | 1000 to 10000 nM

Proceeding to the next molecule to report its IC50.
Challenge: Give HCV NS5B polymerase (Hepatitis C virus genotype 1b, UniProt P26663) IC50 for CC(C)CCn1nc(-c2cc[nH]c2)c(O)c(C2=Nc3ccc(NS(C)(=O)=O)cc3S(=O)(=O)N2)c1=O
Response given: < 100 nM
